Kindly supply the reported pKd values for the records listed here.
B1: NELF-E aptamer (parent)
chain: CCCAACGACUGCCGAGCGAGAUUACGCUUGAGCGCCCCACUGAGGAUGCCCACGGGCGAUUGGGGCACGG

Variants of: B1
Experiment: HiTS-RAP
Conditions: with NELF-E (Drosophila)
pKd here: minus log base 10 of the concentration, concentration in moles per litre.

## Input Could you tell me which pKd is on file for A24G U29G ?
## Output 8.23

## Input Please answer likewise for C6G G56A
## Output 8.08

## Input Please answer likewise for A4G A19U
## Output 8.22

## Input Please answer likewise for G7A A8C
## Output 8.23

## Input Please answer likewise for A4G G34C
## Output 7.97

## Input Please answer likewise for C12G A67U
## Output 8.15

## Input Please answer likewise for U29G G62U
## Output 8.09

## Input Please answer likewise for C13U G64A
## Output 8.09

## Input Please answer likewise for U10G G56A
## Output 8.02

## Input Please answer likewise for G7U G54A
## Output 7.80

## Input Please answer likewise for G14U U29C
## Output 8.13

## Input Please answer likewise for A4G A8G
## Output 8.23

## Input Please answer likewise for C6A
## Output 8.21

## Input Please answer likewise for U23G G55C
## Output 8.16

## Input Please answer likewise for C38U
## Output 8.12

## Input Please answer likewise for A5G U47G
## Output 8.12

## Input Please answer likewise for C50A
## Output 7.83

## Input Please answer likewise for A5U G14A
## Output 8.21

## Input Please answer likewise for A4G A5C
## Output 8.19

## Input Please answer likewise for C9U G16U
## Output 8.13

## Input Please answer likewise for A5G C6U
## Output 8.23

## Input Please answer likewise for A5C U23G
## Output 8.10

## Input Please answer likewise for A8U G56A
## Output 7.78

## Input Please answer likewise for G11U A67G
## Output 8.19

## Input Please answer likewise for G45U
## Output 8.17

## Input Please answer likewise for C25G G26C
## Output 8.22

## Input Please answer likewise for C12G A31G
## Output 8.15

## Input Please answer likewise for G7U C33U
## Output 8.20

## Input Please answer likewise for U22G G64C
## Output 8.16

## Input Please answer likewise for U22G A52U
## Output 7.76

## Input Please answer likewise for G64C G65U
## Output 8.29

## Input Please answer likewise for C53A
## Output 8.31

## Input Please answer likewise for C6G U28C
## Output 8.05

## Input Please answer likewise for U22G U23C
## Output 8.33

## Input Please answer likewise for C6G C17U
## Output 8.22

## Input Please answer likewise for G11U C12G
## Output 8.24

## Input Please answer likewise for U29G A52G
## Output 8.36

## Input Please answer likewise for C13G G48A
## Output 7.96

## Input Please answer likewise for U10G A21C
## Output 8.36

## Input Please answer likewise for C40A
## Output 7.15

## Input Please answer likewise for A4G C38U
## Output 8.07

## Input Please answer likewise for G56A
## Output 7.99

## Input Please answer likewise for C12G G48A
## Output 8.04

## Input Please answer likewise for G14U C17U
## Output 8.21

## Input Please answer likewise for G14A U29G
## Output 8.27

## Input Please answer likewise for U22G G26A
## Output 8.25

## Input Please answer likewise for C9G G64C
## Output 8.24

## Input Please answer likewise for G44U
## Output 8.14

## Input Please answer likewise for C13G G63U
## Output 8.10

## Input Please answer likewise for A5U C12U
## Output 8.20

## Input Please answer likewise for G16A
## Output 8.28

## Input Please answer likewise for G44A
## Output 7.37

## Input Please answer likewise for C6U G54A
## Output 7.84

## Input Please answer likewise for C33G G34U
## Output 8.26

## Input Please answer likewise for C6G G58U
## Output 8.16
